# test description: in vivo
# test context: mouse
recorded metric: LD50 (mg/kg)

* C[C@]12CCC(=O)C=C1CC[C@@H]1[C@@H]2CC[C@@]2(C)[C@H]1CC[C@]2(O)C(=O)COC(=O)Cc1ccc(N(CCCl)CCCl)cc1 | 80

###

# Tested on: Lewis lung carcinoma LL
# test description: Antitumor effect on grafted Lewis lung carcinoma LL
# Format: in vivo, mice and rats
# test context: in vivo
Where a name gives a salt, the structure may show the parent alone.
recorded metric: Maximum tumor growth inhibition (%)

- C[C@]12CCC(=O)C=C1CC[C@@H]1[C@@H]2CC[C@@]2(C)[C@H]1CC[C@]2(O)C(=O)COC(=O)Cc1ccc(N(CCCl)CCCl)cc1: 81
- C[C@]12CC[C@@H]3c4ccc(OC(=O)N(CCCl)CCCl)cc4CC[C@H]3[C@@H]1CC[C@@H]2OP(=O)(O)O [Estracyte, reference compound]: 29
- NC(Cc1ccc(N(CCCl)CCCl)cc1)C(=O)O (stereo not shown) [Sarcolysine, hydrochloride, reference compound]: 58
- C[C@]12C=CC(=O)C=C1CC[C@@H]1[C@@H]2[C@@H](O)C[C@@]2(C)[C@H]1CC[C@]2(O)C(=O)CO [Prednisolone, reference compound]: 30
